- Test system: NCI/ADR-RES ovarian
- ASSAY TEXT: NCI-60 one-dose screen, 48 h
- PARTICULARS: 10 µM unless noted
Compounds without any hit were thinned out: in the full panel of roughly 83,000, 20% have a hit. The source made the active and inactive calls. The calls were made as follows: active = growth percent below 10; inactive = the rest.
Choose one outcome from this list and give only that: active, inactive

Check out these entries, answers already filled in.
# MOLECULE, CLASS LABEL
data = [
    ("COc1cc(C2CC(c3cc(OC)c(OC)c(OC)c3)=NN2C(C)=O)ccc1OCc1ccccc1 (stereo not given)", "inactive"),
    ("C#CCOc1ccc(/C=N/Nc2nc(-c3cc4cc(OC)ccc4oc3=O)cs2)cc1OC", "inactive"),
    ("CC(C)c1ccc2c(N)c(C(=O)Nc3ccc(C(F)(F)F)cn3)sc2n1", "inactive"),
    ("COc1ccc2c(c1)c(/C=N/Nc1ccc3ccccc3n1)cn2C", "active"),
    ("O=C(CN1C(=O)/C(=C/c2ccccc2F)SC1=S)N1CCOCC1", "inactive"),
    ("CCCSc1nc(Nc2ccc(S(N)(=O)=O)cc2)c(C#N)c(-c2cc(OC)c(OC)c(OC)c2)n1", "inactive"),
    ("CN(C)CCOc1ccc(C(=O)C2[C@H](c3ccc(Cl)cc3)[C@@H](c3ccccc3)NC23C(=O)Nc2ccc(Br)cc23)cc1 (stereo not given in full)", "inactive"),
    ("CC(=O)NNc1ccc2nnc(-c3ccccc3)n2n1", "inactive"),
]

Asked: For CC(C)CCNC(=O)N/C(N)=N/c1nc2ccccc2s1 , which call appears in the assay record?
Given back: inactive

Asked: Per the assay record, what outcome was assigned to C#CCOc1cc(N(CC)CC)ccc1C(C(=O)NC(C)(C)C)N(C(=O)C1CCc2cc(F)ccc2O1)c1ccccc1Br (stereo not given) ?
Given back: inactive

Asked: Any idea what this test logged for CCOC(=O)C1=C(N)N(c2ccccc2)C2=C(C(=O)CC(C)(C)C2)C1c1ccc(Cl)cc1Cl (stereo not given) ?
Given back: inactive

Asked: Lab log entry: O=C(O)c1ccc(-c2ccc(/C=N/NC(=O)c3[nH]c4ccc(Br)cc4c3-c3ccccc3)s2)cc1 — outcome as called in the assay?
Given back: inactive

Asked: Hi, do you know how COc1ccc(C(=O)/C=C/c2cccc(Br)c2)cc1S(N)(=O)=O came out in this test?
Given back: active

Asked: Per the assay record, what outcome was assigned to CCOc1ccc(-c2c(C#N)c(-c3ccc(Cl)cc3)nc3n[nH]c(-c4ccc(Cl)cc4)c23)cc1OC ?
Given back: inactive

Asked: Give the logged outcome of this assay for the following molecule: COc1cc(C2CC(c3cc(OC)c(OC)c(OC)c3)=NN2C(C)=O)ccc1OCc1ccc(F)cc1 (stereo not given)
Given back: inactive

Asked: How did this test come out for S=C(NCCc1ccccc1)Nc1ccc(OCc2nc3ccccc3[nH]2)cc1 ?
Given back: inactive
